# testParameters: buffer; pH 7.4; 200.0 µM
recordedEndpoint: log10 solubility kinetic (log10 of the value in µg/mL)

[
  {
    "compound": "Cc1ccc(S(=O)(=O)NCCNC(=O)CN2CCOCC2)cc1",
    "log10 solubility kinetic": 1.69
  },
  {
    "compound": "CCOc1ccccc1N=CC1=C(O)CC(c2ccccc2)CC1=O (configuration not stated)",
    "log10 solubility kinetic": 0.53
  },
  {
    "compound": "C#CCOc1ccc(C2C(C#N)=C(N)Oc3cc(O)ccc32)cc1 (configuration not stated)",
    "log10 solubility kinetic": 1.54
  },
  {
    "compound": "Cc1cc(SCc2ccccc2C)nc(=O)[nH]1",
    "log10 solubility kinetic": 1.49
  },
  {
    "compound": "Cc1sc(NC(=O)Nc2ccccc2)c(C(N)=O)c1C",
    "log10 solubility kinetic": 0.71
  },
  {
    "compound": "NCCCCCC(=O)O",
    "log10 solubility kinetic": -0.05
  }
]

* * *

# testParameters: buffer; pH 7.4; 200.0 µM
recordedEndpoint: log10 solubility kinetic (log10 of the value in µg/mL)

[
  {
    "molecule": "N#Cc1ccccc1COC(=O)c1ccc2c(c1)OCCO2",
    "measValue": 1.04
  },
  {
    "molecule": "COCCNC(=O)/C(C#N)=C/C=C/c1ccccc1",
    "measValue": 1.46
  },
  {
    "molecule": "Cc1cccc(C(=O)N2CCCC(c3nc(-c4ccc(C)o4)no3)C2)c1 (configuration not stated)",
    "measValue": 1.68
  },
  {
    "molecule": "CCOc1ccccc1NC(=O)Nc1ccncc1",
    "measValue": 1.56
  },
  {
    "molecule": "COc1ccc2c3c([nH]c2c1)C(C)=NCC3",
    "measValue": 1.49
  },
  {
    "molecule": "CN(C(=O)c1ccoc1)c1ccc2ccccc2c1",
    "measValue": 1.46
  },
  {
    "molecule": "O=C(CSc1ccccc1)NCc1ccccc1",
    "measValue": 1.35
  },
  {
    "molecule": "Cc1nc(N2CCC(C)CC2)c(C#N)c(C)c1[N+](=O)[O-]",
    "measValue": -0.05
  },
  {
    "molecule": "Cn1c(=O)n(Cc2ccccc2)c(=O)c2c1nc1n2CCN1Cc1ccco1",
    "measValue": 1.71
  }
]

* * *

# testParameters: buffer; pH 7.4; 200.0 µM
recordedEndpoint: solubility kinetic (µg/mL)

[
  {
    "compound": "CCC(Sc1nc(-c2ccccc2)c(-c2ccccc2)[nH]1)C(=O)O (configuration not stated)",
    "recordedEndpoint": "solubility kinetic",
    "boundOperator": "=",
    "measValue": 44.8
  },
  {
    "compound": "C=CC[n+]1cccc(-c2cc3ccc(C)cc3[nH]2)c1.[Br-]",
    "recordedEndpoint": "solubility kinetic",
    "boundOperator": ">",
    "measValue": 49.4
  },
  {
    "compound": "O=C(O)CNC(=S)N(Cc1ccccc1Cl)C1CCCCC1",
    "recordedEndpoint": "solubility kinetic",
    "boundOperator": "=",
    "measValue": 49.1
  },
  {
    "compound": "Cc1ccc(OCCNC(=O)c2ccccc2F)cc1",
    "recordedEndpoint": "solubility kinetic",
    "boundOperator": "=",
    "measValue": 36.5
  },
  {
    "compound": "CCOC(=O)N1CCN(C(=O)c2cc3cc(Cl)ccc3[nH]2)CC1",
    "recordedEndpoint": "solubility kinetic",
    "boundOperator": "=",
    "measValue": 7
  },
  {
    "compound": "Cc1ccc(SCC(=O)NCc2ccc(F)cc2)cc1",
    "recordedEndpoint": "solubility kinetic",
    "boundOperator": "=",
    "measValue": 9.5
  },
  {
    "compound": "COc1ccc(CCNC(=O)COC(=O)Cc2c[nH]c3ccccc23)cc1OC",
    "recordedEndpoint": "solubility kinetic",
    "boundOperator": "=",
    "measValue": 47
  },
  {
    "compound": "CCOc1ncccc1C(=O)OCC(=O)Nc1ccc2c(c1)CCC2",
    "recordedEndpoint": "solubility kinetic",
    "boundOperator": "=",
    "measValue": 8.1
  },
  {
    "compound": "O=C(CCc1c[nH]c2ccccc12)NCCc1ccc(Cl)cc1",
    "recordedEndpoint": "solubility kinetic",
    "boundOperator": "=",
    "measValue": 4.2
  },
  {
    "compound": "CSc1nnc(C)c(=O)n1COC(=O)/C=C/c1ccccc1",
    "recordedEndpoint": "solubility kinetic",
    "boundOperator": ">",
    "measValue": 47.6
  },
  {
    "compound": "CCOc1ccc(CCNC(=O)COC(=O)c2ccncc2)cc1OCC",
    "recordedEndpoint": "solubility kinetic",
    "boundOperator": ">",
    "measValue": 55.9
  },
  {
    "compound": "N#C/C(=C\\c1ccccc1)C(=O)N1CCN(c2ccccc2F)CC1",
    "recordedEndpoint": "solubility kinetic",
    "boundOperator": "=",
    "measValue": 20.4
  }
]

* * *

# testParameters: buffer; pH 7.4; 200.0 µM
Hi, to clarify the labels: T covers solubility kinetic from 4 µg/mL upward, F covers anything below 4 µg/mL.

[
  {
    "molecule": "O=C(OCC(=O)N1CCCC1)c1cc(Cl)ccc1[N+](=O)[O-]",
    "classLabel": "T"
  },
  {
    "molecule": "C=CC(=O)Oc1ccc(N2Cc3ccccc3C2=O)cc1",
    "classLabel": "F"
  },
  {
    "molecule": "CCOC(=O)C1(Cc2ccccc2)C(=O)Nc2ccccc21 (centres undefined)",
    "classLabel": "T"
  },
  {
    "molecule": "COC(=O)c1ccccc1NC(=O)COC(=O)[C@H](C)NC(N)=O",
    "classLabel": "T"
  },
  {
    "molecule": "CCc1ccccc1N1CN(Cc2ccco2)CNC1=S",
    "classLabel": "T"
  },
  {
    "molecule": "CCC(C)NS(=O)(=O)c1cc2c3c(c1)CCC(=O)N3CCC2 (centres undefined)",
    "classLabel": "T"
  },
  {
    "molecule": "CCN(C(=O)Cn1c(Cl)nc2c1c(=O)n(C)c(=O)n2C)C1CCCCC1",
    "classLabel": "T"
  },
  {
    "molecule": "COc1ccc(Cn2c(C(F)(F)F)ccc(C(N)=O)c2=O)cc1",
    "classLabel": "T"
  },
  {
    "molecule": "O=C1NC(=Nc2ccccc2)CS1",
    "classLabel": "T"
  },
  {
    "molecule": "Cc1cccc(C(=O)OCC(=O)N2CCc3ccccc3C2)c1O",
    "classLabel": "T"
  },
  {
    "molecule": "CC(=O)c1c(COC(=O)c2ccc(F)cc2)nc2ccccc2[n+]1[O-]",
    "classLabel": "F"
  },
  {
    "molecule": "CC(NC(=O)COC(=O)c1cccnc1Cl)C12CC3CC(CC(C3)C1)C2 (centres undefined)",
    "classLabel": "T"
  },
  {
    "molecule": "N#C/C(=C\\c1c[nH]c2ccccc12)C(=O)NC1CCCC1",
    "classLabel": "F"
  },
  {
    "molecule": "CC1(C)CC(=O)C2=C(C1)OC(N)=C(C#N)C2c1ccc[nH]1 (centres undefined)",
    "classLabel": "T"
  },
  {
    "molecule": "CC(=O)c1c(C)n(-c2ccc(C)cc2C)c2ccc(O)cc12",
    "classLabel": "F"
  },
  {
    "molecule": "O=C(NCC1CCCO1)c1cc2c(s1)CCC2 (centres undefined)",
    "classLabel": "T"
  },
  {
    "molecule": "COc1cc(C(=O)NCCCCc2ccccc2)cc(OC)c1OC",
    "classLabel": "T"
  },
  {
    "molecule": "COc1ccccc1NC(=O)/C(=C/c1ccncc1)NC(=O)c1ccccc1",
    "classLabel": "T"
  },
  {
    "molecule": "C=CCOc1ccc(C=Nc2ccc(OC)cc2)c(O)c1",
    "classLabel": "T"
  },
  {
    "molecule": "CC(N)Cc1cn(Cc2ccccc2)c2ccccc12.Cl (centres undefined)",
    "classLabel": "T"
  },
  {
    "molecule": "O=C(c1cccc([N+](=O)[O-])c1)N1CC2C3C=CC(C3)C2C1 (centres undefined)",
    "classLabel": "T"
  },
  {
    "molecule": "COc1cccc(Nc2nc(-c3sc(C)nc3C)cs2)c1",
    "classLabel": "F"
  },
  {
    "molecule": "O=C(CN1CCOCC1)N1c2ccccc2Sc2ccccc21",
    "classLabel": "T"
  },
  {
    "molecule": "N#Cc1cccc(C#N)c1Oc1ccc(S(=O)(=O)Nc2ccccc2)cc1",
    "classLabel": "T"
  },
  {
    "molecule": "COC(=O)c1scc(C)c1S(=O)(=O)Nc1ccc(C)cc1",
    "classLabel": "T"
  },
  {
    "molecule": "CCNc1oc(/C=C/c2ccc(OCC)cc2)nc1C#N",
    "classLabel": "F"
  },
  {
    "molecule": "O=C(COC(=O)COc1ccccc1)NC1CCCC1",
    "classLabel": "T"
  },
  {
    "molecule": "O=C(CCCc1ccccc1)NCCc1ccc(F)cc1",
    "classLabel": "T"
  },
  {
    "molecule": "CC(=O)c1cccc(S(=O)(=O)NCCC(=O)O)c1",
    "classLabel": "T"
  },
  {
    "molecule": "CCc1nonc1NC(=O)c1oc2ccc(F)cc2c1C",
    "classLabel": "F"
  },
  {
    "molecule": "COc1ccccc1NS(=O)(=O)c1ccc2oc(N)nc2c1",
    "classLabel": "T"
  },
  {
    "molecule": "Cc1nnc(SCC(=O)Nc2ccccc2F)n(N)c1=O",
    "classLabel": "T"
  },
  {
    "molecule": "Fc1ccc(CNC2CCN(Cc3ccccc3)CC2)cc1",
    "classLabel": "T"
  },
  {
    "molecule": "Cc1cccc(C)c1NC(=O)C[n+]1cc(-c2ccccc2)n2c1CCC2.[Cl-]",
    "classLabel": "T"
  },
  {
    "molecule": "CSCCC(NC(=O)c1ccco1)C(=O)Nc1ccncc1 (centres undefined)",
    "classLabel": "T"
  },
  {
    "molecule": "CC1C(=O)N2CCCc3cc(S(=O)(=O)N(C)CCC#N)cc1c32 (centres undefined)",
    "classLabel": "T"
  },
  {
    "molecule": "O=C1CCCN1CCCNc1ncnc2sccc12",
    "classLabel": "T"
  },
  {
    "molecule": "CC(C)CNC(=O)CC1Nc2ccccc2NC1=O (centres undefined)",
    "classLabel": "T"
  },
  {
    "molecule": "Nc1ccc(C(=O)[O-])cc1.O.[Na+]",
    "classLabel": "T"
  },
  {
    "molecule": "COc1ccc(CNC(=O)COC(=O)[C@@H]2CCCN2C(=O)c2cccs2)cc1",
    "classLabel": "T"
  },
  {
    "molecule": "O=C(Nc1cscc1S(=O)(=O)c1ccc(Cl)cc1)c1ccccc1Cl",
    "classLabel": "F"
  },
  {
    "molecule": "O=C(NCC(=O)N1CCN(c2ccccc2)CC1)c1ccco1",
    "classLabel": "T"
  },
  {
    "molecule": "CCC(=O)Nc1cc(C(F)(F)F)ccc1N1CCCC1",
    "classLabel": "T"
  },
  {
    "molecule": "O=C(NCCCn1ccnc1)c1cc2ccccc2o1",
    "classLabel": "T"
  },
  {
    "molecule": "CNC(=O)c1c(NC(=O)c2cccc(C)c2)sc2c1CCC2",
    "classLabel": "F"
  },
  {
    "molecule": "NC(=O)c1cn(C2CCCCC2)c2ccccc2c1=O",
    "classLabel": "T"
  },
  {
    "molecule": "O=C(c1cc(Cl)ccc1Cl)N1CCN(Cc2ccccc2)CC1",
    "classLabel": "T"
  }
]

Ref: PubChem BioAssay AID1996
